test system: HeLa cells; assay: Cell cycle analysis with HeLa cells; format: cell-based, human; settings: 18 hr, 60 nM
# reported Percent in Cell Cycle Phase S; entries follow

smiles repr | Percent in Cell Cycle Phase S, %
CN(C)CCCOc1cc(F)c(-c2c(Cl)nc3ncnn3c2NCC(F)(F)F)c(F)c1.Cl | 8
C[C@H](Nc1c(-c2c(F)cc(OCCCN(C)C)cc2F)c(Cl)nc2ncnn12)C(F)(F)F.Cl | 10
CNCCCOc1cc(F)c(-c2c(Cl)nc3ncnn3c2NCC(F)(F)F)c(F)c1.Cl | 9
CNCCCOc1cc(F)c(-c2c(Cl)nc3ncnn3c2N[C@@H](C)C(F)(F)F)c(F)c1.Cl | 9

* * *

system: HeLa cells; assay: Cell cycle analysis with HeLa cells; assay type: cell-based, human; details: 18 hr, 100 nM
# reported Percent in Cell Cycle Phase G1; entries follow

molecule | target or system | Percent in Cell Cycle Phase G1 / %
CNCCCOc1cc(F)c(-c2c(Cl)nc3ncnn3c2N[C@@H](C)C(F)(F)F)c(F)c1.Cl [Example 2a] | HeLa cells | 7
COc1cc2c(c(OC)c1OC)-c1ccc(OC)c(=O)cc1[C@@H](NC(C)=O)CC2 [Colchicine, reference compound] | HeLa cells | 11
CNCCCOc1cc(F)c(-c2c(Cl)nc3ncnn3c2NCC(F)(F)F)c(F)c1.Cl [Example 3a] | HeLa cells | 5
CN(C)CCCOc1cc(F)c(-c2c(Cl)nc3ncnn3c2NCC(F)(F)F)c(F)c1.Cl [Example 4a] | HeLa cells | 7
C[C@H](Nc1c(-c2c(F)cc(OCCCN(C)C)cc2F)c(Cl)nc2ncnn12)C(F)(F)F.Cl [Example 1a] | HeLa cells | 4

* * *

# reported pIC50; entries follow
system: HL-60 cells; experiment: MTS cytotoxicity test with HL-60 cells; assay type: cell-based; conditions: Homo sapiens; HL-60 cells, MTS; read-out: IC50 HL-60
pIC50: −log10 of the molar value.

compound | pIC50
CN(C)CCCOc1cc(F)c(-c2c(Cl)nc3ncnn3c2NCC(F)(F)F)c(F)c1.Cl [Example 4a] | 7.28
CNCCCOc1cc(F)c(-c2c(Cl)nc3ncnn3c2C2CCCCCC2)c(F)c1.O=C(O)C(F)(F)F [Example 32, trifluoroacetic acid salt] | 8.15
C[C@H](Nc1c(-c2c(F)cc(OCCCN(C)C)cc2F)c(Cl)nc2ncnn12)C(F)(F)F.Cl [Example 1a] | 7.15
CC(=O)O[C@H]1C(=O)[C@@]2(C)[C@H]([C@H](OC(=O)c3ccccc3)[C@]3(O)C[C@H](OC(=O)[C@H](O)[C@@H](NC(=O)c4ccccc4)c4ccccc4)C(C)=C1C3(C)C)[C@]1(OC(C)=O)CO[C@@H]1C[C@@H]2O [Paclitaxel, reference compound] | 8.24
C[C@H](Nc1c(-c2c(F)cc(OCCCN(C)C)cc2F)c(Br)nc2ncnn12)C(F)(F)F [Example 25] | 6.98
CC[C@@]1(O)C(=O)OCc2c1cc1n(c2=O)Cc2cc3ccccc3nc2-1 [Camptothecin, reference compound] | 7.92
COc1cccc2c1C(=O)c1c(O)c3c(c(O)c1C2=O)C[C@@](O)(C(=O)CO)C[C@@H]3O[C@H]1C[C@H](N)[C@H](O)[C@H](C)O1 [Doxorubicin, reference compound] | 7.64
OCCCOc1cc(F)c(-c2c(Cl)nc3ncnn3c2C2CCCCCC2)c(F)c1 [Example 30] | 7.26
C[C@H](Nc1c(-c2c(F)cc(OCCCO)cc2F)c(Cl)nc2ncnn12)C(F)(F)F [Example 20] | 6.81
O=C1c2c(O)ccc(O)c2C(=O)c2c(NCCNCCO)ccc(NCCNCCO)c21 [Mitoxantrone, reference compound] | 8.02
CC[C@]1(O)C[C@H]2CN(CCc3c([nH]c4ccccc34)[C@@](C(=O)OC)(c3cc4c(cc3OC)N(C=O)[C@H]3[C@@](O)(C(=O)OC)[C@H](OC(C)=O)[C@]5(CC)C=CCN6CC[C@]43[C@@H]65)C2)C1 [Vincristine, reference compound] | 8.60
CNCCCOc1cc(F)c(-c2c(Cl)nc3ncnn3c2NCC(F)(F)F)c(F)c1.Cl [Example 3a] | 7.59

Cited source for all entries: patent US7507739B2
